target: aryl hydrocarbon receptor (AhR) (Rattus norvegicus); construct: endogenous in cells; host or cells: H4L7.5c2, H4L1.1c4 and DR-CALUX (H4L1.1c10, H4IIe-based) recombinant rat hepatoma cells; experiment: CALUX luciferase reporter bioassay, H4L7.5c2 rat hepatoma cells (20 DREs); type: cell-based; conditions: H4L7.5c2 rat (20 DREs); 5-PL fit by WSSR regression
measurement-label: EC50 (nM)
Respond numerically; units are nM and should not be typed.

EC50 reported for this molecule Clc1cc2c(cc1Cl)Oc1cc(Cl)c(Cl)cc1O2 [2,3,7,8-TCDD, 2,3,7,8-tetrachlorodibenzo-p-dioxin] : 0.0114

----------
Target: aryl hydrocarbon receptor (AhR) (Rattus norvegicus, UniProt P41738)
Construct: endogenous in cells; host or cells: H4L7.5c2, H4L1.1c4 and DR-CALUX (H4L1.1c10, H4IIe-based) recombinant rat hepatoma cells
Sequence (P41738 10-853): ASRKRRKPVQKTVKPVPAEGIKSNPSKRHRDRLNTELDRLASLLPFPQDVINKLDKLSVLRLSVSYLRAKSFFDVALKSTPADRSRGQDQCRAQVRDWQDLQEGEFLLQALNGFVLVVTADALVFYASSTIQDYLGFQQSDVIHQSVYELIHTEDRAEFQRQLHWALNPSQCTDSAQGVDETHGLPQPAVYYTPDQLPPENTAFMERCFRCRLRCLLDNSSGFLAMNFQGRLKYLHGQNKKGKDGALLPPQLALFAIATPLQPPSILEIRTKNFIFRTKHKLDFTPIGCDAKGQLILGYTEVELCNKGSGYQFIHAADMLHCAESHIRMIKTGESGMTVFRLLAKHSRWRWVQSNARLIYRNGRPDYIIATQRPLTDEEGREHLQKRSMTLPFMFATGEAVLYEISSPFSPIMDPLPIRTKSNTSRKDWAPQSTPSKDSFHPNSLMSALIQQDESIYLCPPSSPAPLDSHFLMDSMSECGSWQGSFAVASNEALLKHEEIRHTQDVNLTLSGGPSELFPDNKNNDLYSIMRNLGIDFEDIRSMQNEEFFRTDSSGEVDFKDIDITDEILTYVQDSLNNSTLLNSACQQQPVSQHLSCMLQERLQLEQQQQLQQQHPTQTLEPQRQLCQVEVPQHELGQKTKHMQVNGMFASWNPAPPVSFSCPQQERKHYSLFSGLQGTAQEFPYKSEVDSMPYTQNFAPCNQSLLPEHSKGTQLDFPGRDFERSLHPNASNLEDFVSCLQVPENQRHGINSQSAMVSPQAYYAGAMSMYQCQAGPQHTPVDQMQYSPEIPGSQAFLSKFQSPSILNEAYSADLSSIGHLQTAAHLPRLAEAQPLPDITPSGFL
Assay: CALUX luciferase reporter bioassay, H4L1.1c4 rat hepatoma cells (4 DREs)
Type: cell-based
Conditions: H4L1.1c4 rat (4 DREs); 5-PL fit by WSSR regression
measurement-label: EC50
State the value with its unit after it.

EC50 reported for this molecule Clc1cc2c(cc1Cl)Oc1cc(Cl)c(Cl)cc1O2 [2,3,7,8-TCDD, 2,3,7,8-tetrachlorodibenzo-p-dioxin] : 5.52 pM

----------
biological target: aryl hydrocarbon receptor (AhR) (Mus musculus, UniProt P30561); test: CALUX luciferase reporter bioassay, H1L7.5c3 mouse hepatoma cells (20 DREs); type: cell-based; conditions: H1L7.5c3 mouse hepatoma CALUX cells (20 DREs); H1L7.5c3 mouse (20 DREs); 5-PL fit by WSSR regression
Sequence (P30561 10-848): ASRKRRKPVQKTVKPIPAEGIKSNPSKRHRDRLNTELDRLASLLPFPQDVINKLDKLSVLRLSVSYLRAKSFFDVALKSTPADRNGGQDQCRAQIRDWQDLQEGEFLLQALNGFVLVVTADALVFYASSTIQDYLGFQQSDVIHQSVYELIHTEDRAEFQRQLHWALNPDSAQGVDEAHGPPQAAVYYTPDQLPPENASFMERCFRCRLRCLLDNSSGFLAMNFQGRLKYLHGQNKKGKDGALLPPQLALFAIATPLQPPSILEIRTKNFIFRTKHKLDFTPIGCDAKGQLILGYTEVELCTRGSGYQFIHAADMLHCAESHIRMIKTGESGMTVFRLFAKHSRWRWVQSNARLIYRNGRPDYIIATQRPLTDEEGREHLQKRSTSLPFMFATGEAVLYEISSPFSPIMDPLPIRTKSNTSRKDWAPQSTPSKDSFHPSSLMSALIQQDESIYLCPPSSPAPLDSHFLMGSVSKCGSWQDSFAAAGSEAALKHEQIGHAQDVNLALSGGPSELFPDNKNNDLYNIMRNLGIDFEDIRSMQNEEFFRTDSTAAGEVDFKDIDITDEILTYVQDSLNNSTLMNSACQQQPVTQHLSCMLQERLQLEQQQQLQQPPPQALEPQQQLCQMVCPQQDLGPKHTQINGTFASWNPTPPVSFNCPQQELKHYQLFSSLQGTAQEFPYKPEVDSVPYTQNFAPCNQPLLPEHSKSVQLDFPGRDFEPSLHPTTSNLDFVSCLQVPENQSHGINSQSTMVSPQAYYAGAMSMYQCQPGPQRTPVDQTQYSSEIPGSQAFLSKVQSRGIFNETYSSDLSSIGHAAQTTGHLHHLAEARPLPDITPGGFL
Sequence (P53762 2-791 partner): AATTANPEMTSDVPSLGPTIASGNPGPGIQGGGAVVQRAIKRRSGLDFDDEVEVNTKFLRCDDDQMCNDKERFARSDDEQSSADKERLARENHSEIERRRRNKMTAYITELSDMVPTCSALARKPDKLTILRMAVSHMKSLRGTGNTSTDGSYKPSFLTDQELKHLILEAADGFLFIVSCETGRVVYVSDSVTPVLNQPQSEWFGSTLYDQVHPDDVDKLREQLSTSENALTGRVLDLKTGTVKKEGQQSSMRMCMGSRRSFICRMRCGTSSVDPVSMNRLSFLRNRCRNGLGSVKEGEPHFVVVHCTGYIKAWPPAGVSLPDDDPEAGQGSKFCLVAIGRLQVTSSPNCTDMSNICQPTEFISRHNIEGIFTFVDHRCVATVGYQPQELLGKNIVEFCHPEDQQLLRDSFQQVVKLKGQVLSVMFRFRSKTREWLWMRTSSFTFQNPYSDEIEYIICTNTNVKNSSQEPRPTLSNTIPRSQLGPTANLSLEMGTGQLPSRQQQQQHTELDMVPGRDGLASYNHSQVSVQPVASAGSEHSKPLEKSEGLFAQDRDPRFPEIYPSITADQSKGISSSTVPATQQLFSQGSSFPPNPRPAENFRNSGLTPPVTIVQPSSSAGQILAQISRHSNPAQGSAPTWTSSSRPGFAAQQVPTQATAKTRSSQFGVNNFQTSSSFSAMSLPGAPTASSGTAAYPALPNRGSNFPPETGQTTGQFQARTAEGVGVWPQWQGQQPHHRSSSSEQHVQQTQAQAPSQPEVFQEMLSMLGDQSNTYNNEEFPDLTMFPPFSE
measurement-label: pEC50
// field semantics: pEC50 = negative decimal log of concentration (mol/L)

pEC50 reported for this molecule Clc1cc2c(cc1Cl)Oc1cc(Cl)c(Cl)cc1O2 [2,3,7,8-TCDD, 2,3,7,8-tetrachlorodibenzo-p-dioxin] : 11.28

----------
biological target: aryl hydrocarbon receptor (AhR) (Rattus norvegicus); construct: endogenous in cells; host or cells: H4L7.5c2, H4L1.1c4 and DR-CALUX (H4L1.1c10, H4IIe-based) recombinant rat hepatoma cells; assay: DR-CALUX luciferase reporter bioassay, recombinant rat hepatoma (H4IIe)-based cells (4 DREs); format: cell-based; settings: DR-CALUX rat (4 DREs); 5-PL fit by WSSR regression
measurement-label: EC50 (pM)
Respond numerically; units are pM and should not be typed.

EC50 reported for this compound `Clc1cc2c(cc1Cl)Oc1cc(Cl)c(Cl)cc1O2` : 7.89

----------
target: aryl hydrocarbon receptor (AhR) (Mus musculus); test: CALUX luciferase reporter bioassay, H1L6.1c2 mouse hepatoma cells (4 DREs); format: cell-based; conditions: H1L6.1c2 mouse hepatoma CALUX cells (4 DREs); H1L6.1c2 mouse (4 DREs); 5-PL fit by WSSR regression
measurement-label: pEC50
// field semantics: pEC50 = negative decimal log of concentration (mol/L)

pEC50 reported for this molecule Clc1cc2c(cc1Cl)Oc1cc(Cl)c(Cl)cc1O2 [2,3,7,8-TCDD, 2,3,7,8-tetrachlorodibenzo-p-dioxin] : 10.63
